Origin of the recorded values: ChEMBL document CHEMBL6153138

# test description: Apparent volume of distribution in Sprague-Dawley rat at 1 mg/kg, iv by LC-MS/MS analysis
# Assay type: ADME, organism-based
# test context: in vivo, read-out: Vz
measurement name: Vd (L/kg)
Numbers only, in L/kg.

For this compound ( O=C(Nc1cc(C(F)(F)F)cc(C(F)(F)F)c1)N[C@@H](Cc1ccccc1)Cn1c[n+](Cc2ccc3ccccc3c2)c2ccccc21.[Br-] ), measured Vd is 4.41

====

# test description: AUC (0 to infinity) in Sprague-Dawley rat at 10 mg/kg, po by LC-MS/MS analysis
# Format: ADME, organism-based
# test context: in vivo
measurement name: AUC(0-inf) (ng·h/mL)
Answers are plain numbers, in ng·h/mL.

The recorded AUC(0-inf) for O=C(Nc1cc(C(F)(F)F)cc(C(F)(F)F)c1)N[C@@H](Cc1ccccc1)Cn1c[n+](Cc2ccc3ccccc3c2)c2ccccc21.[Br-] is 4080
